System: HL-60
Test: Cytotoxicity against human HL60 cells after 72 hrs by MTS assay
Format: functional, cell-based
Conditions: HL-60, 72 h
Endpoint Label: pIC50
Give bare numbers, as −log10 of the molar value.

Worked examples, 5 compounds total:
* CC/C=C/[C@@H]1CC[C@]2(C[C@H]3CC[C@H]4[C@@H](C(=O)OC(CC)CCCCCCCCCCCCC[C@@H]5O[C@](O)(CCN)[C@H](O)N(CCCN)C5=O)[C@@]5(CCC[C@H](C)O5)NC(=[N+]34)N2)O1 (stereo partly specified) | 6.27
* CC[C@@H]1C=CCC[C@]2(C[C@H]3CC[C@H]4[C@@H](C(=O)OCCCCCCCCCCCCCC[C@@H]5O[C@](O)(CCN)[C@H](O)N(CCCN)C5=O)[C@@]5(CCC[C@H](C)O5)NC(=[N+]34)N2)O1 | 6.70
* CC/C=C/[C@@H]1CC[C@]2(C[C@H]3CC[C@H]4[C@@H](C(=O)OCCCCCCCCCCCCCC[C@@H]5O[C@](O)(CCN)[C@H](O)N(CCCN)C5=O)[C@@]5(CCC[C@H](C)O5)NC(=[N+]34)N2)O1 | 6.08
* CC[C@@H]1C=CCC[C@]2(C[C@H]3CC[C@H]4[C@@H](C(=O)OCCCCCCCCCCCCCCC[C@@H]5O[C@](O)(CCN)[C@H](O)N(CCCN)C5=O)[C@@]5(CCC[C@H](C)O5)NC(=[N+]34)N2)O1 | 6.96
* CC/C=C/[C@@H]1CC[C@]2(C[C@H]3CC[C@H]4[C@@H](C(=O)OC(CC)CCCCCCCCCCCC[C@@H]5O[C@](O)(CCN)[C@H](O)N(CCCN)C5=O)[C@@]5(CCC[C@H](C)O5)NC(=[N+]34)N2)O1 (stereo partly specified) | 6.19

Now look at this entry.
INPUT: Which pIC50 reading was recorded for the compound CC(=O)O[C@H]1C(=O)[C@@]2(C)[C@H]([C@H](OC(=O)c3ccccc3)[C@]3(O)C[C@H](OC(=O)[C@H](O)[C@@H](NC(=O)c4ccccc4)c4ccccc4)C(C)=C1C3(C)C)[C@]1(OC(C)=O)CO[C@@H]1C[C@@H]2O ?
OUTPUT: 8.47
